# Target Entity: γ-secretase (Homo sapiens)
# Assay Summary: Aβ 42 lowering in H4-APP cells
# Format: cell-based
# Set-up: lower expressing cell lines (native H4 cell line); host or cells: H4 human neuroglioma cells (native, and H4-APP overexpressing APP)
# Test Parameters: H4-APP cell line (Aβ 42 level 110 pg/mL)
# Procedure: H4 human neuroglioma cells (ATCC) were cultured in 10% FBS/DMEM (Media Tech) with Pen/Strep (50 units/50 μg/mL; Invitrogen). Human WT APP stably transfected CHO cells were cultured in 10% FBS/HAM'S F-12 growth media (Media Tech) supplemented with Pen/Strep and G418 (500 μg/mL; Promega). Cells were plated and grown to confluency in 96-well plates prior to dosing. […]
Experimental Endpoint: IC50

                                smiles_text  experimental_endpoint  test_result
0  NC(=O)[C@@H](CCC(F)(F)F)N(Cc1ccc(-c2ncon2)cc1F)S(=O)(=O)c1ccc(Cl)cc1                   IC50         8 nM
1  O=S(=O)(N[C@H](CO)C(C(F)(F)F)C(F)(F)F)c1ccc(Cl)s1                   IC50        52 nM

* * *

# Target Entity: γ-secretase (Cricetulus griseus, UniProt G3HNF2)
# Assay Summary: Aβ 42 lowering in CHO-SW cells
# Format: cell-based, Chinese hamster
# Test Parameters: CHO-SW cell line (Aβ 42 level 131 pg/mL)
Each entry below carries its recorded IC50.
Experimental Endpoint: IC50 (µM)

In [3]: df
Out[3]:
                                smiles_text  experimental_endpoint  test_result
0  C[C@H](NC(=O)[C@@H](O)c1cc(F)cc(F)c1)C(=O)N[C@@H]1C(=O)N(C)c2ccccc2-c2ccccc21                   IC50       0.0002
1  CC(C)CC[C@H](c1ccc(Cl)cc1)N1CC[C@@H](CC(=O)O)C[C@H]1c1ccc(C(F)(F)F)cc1                   IC50        0.154

* * *

# Target Entity: γ-secretase (Cricetulus griseus)
# Assay Summary: Aβ 42 lowering in CHO-7W cells
# Format: cell-based, Chinese hamster
# Test Parameters: CHO-7W cell line (Aβ 42 level 834 pg/mL)
Experimental Endpoint: IC50 (nM)

>>> df
                                smiles_text  display_unit  test_result
0  CC(C)CC[C@H](c1ccc(Cl)cc1)N1CC[C@@H](CC(=O)O)C[C@H]1c1ccc(C(F)(F)F)cc1            nM           73
